This collection of values is drawn from patent US20140356358A1.

target: T1, human neonatal Fc receptor (hFcRn) (human, UniProt P55899 24-290; P61769 21-119); test: phage ELISA pH 6;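 note: higher score means stronger binding and above about 3 to 5 exceeds background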
T1 construct: Biotinylated in the ELISA, Octet and yeast assays; also called human FcRn; huFcRn
T1 sequence (P55899 24-290 limits assumed, chain 1 of 2): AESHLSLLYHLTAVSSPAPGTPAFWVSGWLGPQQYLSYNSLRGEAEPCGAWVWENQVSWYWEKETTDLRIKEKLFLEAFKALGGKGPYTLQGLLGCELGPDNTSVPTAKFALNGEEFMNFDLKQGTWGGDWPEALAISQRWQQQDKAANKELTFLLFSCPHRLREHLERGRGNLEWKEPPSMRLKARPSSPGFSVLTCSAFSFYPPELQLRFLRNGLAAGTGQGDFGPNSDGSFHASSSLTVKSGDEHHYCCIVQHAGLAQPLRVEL
T1 sequence (P61769 21-119 limits assumed, chain 2 of 2): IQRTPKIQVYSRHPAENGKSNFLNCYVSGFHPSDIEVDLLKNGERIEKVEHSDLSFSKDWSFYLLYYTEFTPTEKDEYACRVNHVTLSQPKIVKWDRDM
Please provide measured ELISA score for the entries that follow.
Please reply with the number alone, leaving off any unit.

Name the recorded ELISA score of the binder listed here: L5 isolate with insertion SEQ ID NO: 409 (other) EPKSCDKTHTCPPCPAPELLGGPSVFLFPPKPKDTLMISRTPEVTCVVVDVSHEDPEVKFNWYVDGVEVHNAKTKPREEQYNSTYRVVSVLTVLHQDWLNGKEYKCKVSNKALPAPIEKTISKAKGQPREPQVYTLPPSRDELTKNQVSLTCLVKGFYPSDIAVEWESNGGCVYDVKKCGGGQPENNYKTTPPVLDSDGSFFLYSKLTVDKSRWQQGNVFSCSVMHEALHNHYTQKSLSLSPGK
71.2

Name the recorded ELISA score of the binder listed here: variant Fc-fragment Fc-5-92 (other, soluble elsewhere) EPKSCDKTHTCPPCPAPELLGGPSVFLFPPKPKDTLMISRTPEVTCVVVDVSHEDPEVKFNWYVDGVEVHNAKTKPREEQYNSTYRVVSVLTVLHQDWLNGKEYKCKVSNKALPAPIEKTISKAKGQPREPQVYTLPPSRDELTKNQVSLTCLVKGFYPSDIAVEWESNGGCDGRTKYCGGGQPENNYKTTPPVLDSDGSFFLYSKLTVDKSRWQQGNVFSCSVMHEALHNHYTQKSLSLSPGK
64.1

Name the recorded ELISA score of the binder listed here: L5 isolate with insertion SEQ ID NO: 424 (other) EPKSCDKTHTCPPCPAPELLGGPSVFLFPPKPKDTLMISRTPEVTCVVVDVSHEDPEVKFNWYVDGVEVHNAKTKPREEQYNSTYRVVSVLTVLHQDWLNGKEYKCKVSNKALPAPIEKTISKAKGQPREPQVYTLPPSRDELTKNQVSLTCLVKGFYPSDIAVEWESNGGCQYPRKLCGGGQPENNYKTTPPVLDSDGSFFLYSKLTVDKSRWQQGNVFSCSVMHEALHNHYTQKSLSLSPGK
59.6
